- target-entity: CYP2C9 (Homo sapiens)
- Sequence (P11712 whole entry): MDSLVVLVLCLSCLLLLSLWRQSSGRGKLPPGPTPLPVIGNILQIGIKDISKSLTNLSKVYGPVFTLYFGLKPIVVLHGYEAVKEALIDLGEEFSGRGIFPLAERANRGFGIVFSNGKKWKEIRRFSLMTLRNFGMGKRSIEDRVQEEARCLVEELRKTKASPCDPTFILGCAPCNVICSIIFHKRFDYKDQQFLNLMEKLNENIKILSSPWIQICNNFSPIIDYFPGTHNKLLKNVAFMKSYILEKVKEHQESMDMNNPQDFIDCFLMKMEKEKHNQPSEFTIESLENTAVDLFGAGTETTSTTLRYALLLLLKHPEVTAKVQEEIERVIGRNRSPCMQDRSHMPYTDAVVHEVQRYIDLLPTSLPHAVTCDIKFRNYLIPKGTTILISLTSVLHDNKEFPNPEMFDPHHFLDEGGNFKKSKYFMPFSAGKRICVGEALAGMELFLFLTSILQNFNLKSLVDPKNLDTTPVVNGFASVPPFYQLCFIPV
- run-description: Inhibition of CYP2C9 in human liver microsomes assessed as enzyme-mediated metabolite formation at 10 uM using diclofenac as substrate preincubated for 20 mins followed by substrate addition measured after 30 mins in presence of NADPH by LC-MS/MS analysis relative to control
- Format: ADME
- Design: scale not given: the % may be the effect or the level left
- protocol-conditions: probe diclofenac, read-out: Activity
parameter: activity at 0.5 h, 10 µM (%)
Give the quantity in %, number only.

# input What value of measured activity at 0.5 h, 10 µM is listed for `CCCCCCCC(=O)CCc1ccc(O)c(OC)c1` ?
# output 60.8
